Observed Property: melting point

Prompt: Fill blank: measured melting point of the molecule CCc1cc(C)cc(CC)c1C(C(N)=O)C(N)=O is ____.
Completion: 184 to 186 °C

Prompt: Now the same for CC1=C(C(=O)OC(C)(C)C)C(c2cccc([N+](=O)[O-])c2)N(C(=O)N(C)C)C(=O)N1 (stereo unspecified)
Completion: 187 to 188 °C

Prompt: Now the same for Cn1ccnc1COc1cc(Cl)ncn1
Completion: 126 to 128 °C

Prompt: Now the same for COP(=O)(Cc1c2ccccc2cc2ccccc12)OC
Completion: 152 to 153 °C

Prompt: Now the same for CC(C)(O)CCCCc1ccc2ccccc2c1O
Completion: 101 to 102 °C

Prompt: Now the same for COc1ccc2[nH]cc(CC#N)c2c1Cl
Completion: 138 to 139 °C

Prompt: Now the same for CC(=O)NC1CCC2=C(CC1)C(=O)C(CC(=O)O)C=C2 (stereo unspecified)
Completion: 198 °C

Prompt: Now the same for NS(=O)(=O)c1cc(C(=O)O)cc([N+](=O)[O-])c1Oc1ccc(OCc2ccccc2)cc1
Completion: 247 °C

Prompt: Now the same for Cc1cc2c(c(C)c1C)OCC2
Completion: < 50 °C

Prompt: Now the same for Cn1ncc(-c2ccccn2)c1S(N)(=O)=O
Completion: 113 to 114 °C

Prompt: Now the same for Cc1nc(O)c([N+](=O)[O-])c(Cl)n1
Completion: 194 to 196 °C
